Answer each item with its documented IC50.
measurement_target: soluble epoxide hydrolase (sEH) (Homo sapiens)
Construct: human recombinant sEH; C-terminal hydrolase domain activity measured
Sequence (P34913 1-555): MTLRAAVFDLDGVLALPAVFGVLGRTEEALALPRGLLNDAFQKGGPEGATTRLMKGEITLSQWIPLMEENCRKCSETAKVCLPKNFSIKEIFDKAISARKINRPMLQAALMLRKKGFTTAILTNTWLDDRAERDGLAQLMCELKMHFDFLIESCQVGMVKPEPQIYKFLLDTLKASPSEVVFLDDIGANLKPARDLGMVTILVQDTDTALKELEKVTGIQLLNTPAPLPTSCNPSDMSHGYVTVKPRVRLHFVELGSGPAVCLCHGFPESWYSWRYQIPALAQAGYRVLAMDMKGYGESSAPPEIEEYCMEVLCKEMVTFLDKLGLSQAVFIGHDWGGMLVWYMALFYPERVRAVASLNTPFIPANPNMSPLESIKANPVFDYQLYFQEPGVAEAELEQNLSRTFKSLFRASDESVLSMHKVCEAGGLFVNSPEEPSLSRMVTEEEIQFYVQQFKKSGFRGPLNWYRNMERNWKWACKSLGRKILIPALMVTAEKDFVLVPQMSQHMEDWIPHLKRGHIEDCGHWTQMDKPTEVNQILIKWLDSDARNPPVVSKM
test_name: cell-free fluorescence assay with PHOME substrate, concentration-response
Numbers only, in µM.

[[record]]
substance_smiles = "O=C(CCCCn1c(=O)[nH]c2ccccc2c1=O)Nc1ccc2c(c1)OCCO2"
recorded_number = 8.8


For the next question, use this molecule.
Which measured IC50 value corresponds to O=C(CCCCCn1c(=O)[nH]c2ccccc2c1=O)Nc1ccc2c(c1)OCCO2 ?
4.5
